Taken from patent US20100249132A1.

Entries annotated with measured pIC50
- tgt: recombinant autotaxin (Homo sapiens, UniProt Q13822)
- experiment.notes: Autotaxin test (enzyme test), Amplex Red fluorescence
- condition.label: substrate LPC 75 μM, Amplex Red detection, read-out: IC50 (autotaxin inhibition, enzyme test)
pIC50: −log10 of the molar value.

Below are worked cases with known answers.
| molecule | value.measured |
| --- | --- |
| NC(=O)c1nc(Cc2ccc(C(=O)O)o2)[nH]c1NC(=O)Nc1ccc2ccccc2c1 [Compound A33] | < 5.00 |
| NC(=O)c1nc(-c2ccc(OCC(=O)O)cc2)[nH]c1NC(=O)Nc1cccc(C(F)(F)F)c1 [Compound A49] | 5.00 to 6.00 |
| CCc1ccc(NC(=O)Nc2[nH]c(-c3ccc(C(=O)O)cc3)nc2C(N)=O)cc1 [Compound A19] | < 5.00 |

Next, consider the following molecule.
Short answer on recombinant autotaxin (Homo sapiens, UniProt Q13822) for NC(=O)c1nc(Cc2ccc(C(=O)O)cc2)[nH]c1NC(=O)Nc1ccc(Cl)cc1 [Compound A6] , pIC50: 5.00 to 6.00

====

Entries and their measured pIC50 follow.
- tgt: recombinant autotaxin (Homo sapiens)
- experiment.notes: Autotaxin test (enzyme test), Amplex Red fluorescence
- condition.label: substrate LPC 75 μM, Amplex Red detection, read-out: IC50 (autotaxin inhibition, enzyme test)
pIC50: −log10 of the molar value.

| smiles.structure | pIC50 |
| --- | --- |
| NC(=O)c1nc(Cc2ccc(OCC(=O)O)cc2)[nH]c1NC(=O)Nc1ccc(Oc2ccccc2)cc1 | < 5.00 |
| CCCCc1ccc(NC(=O)Nc2[nH]c(Cc3ccc(C(=O)N4CCN(C)CC4)o3)nc2C(N)=O)cc1 | 5.00 to 6.00 |
| Cc1cc(Cl)ccc1NC(=O)Nc1[nH]c(Cc2ccc(C(=O)O)s2)nc1C(N)=O | 5.00 to 6.00 |
| NC(=O)c1nc(Cc2ccc(C(=O)O)s2)[nH]c1NC(=O)Nc1ccc(F)c(C(F)(F)F)c1 | < 5.00 |
| Cc1cccc(C)c1NC(=O)Nc1[nH]c(Cc2ccc(C(=O)O)cc2)nc1C(N)=O | < 5.00 |

Next up:
Per the record, CCc1ccc(NC(=O)Nc2[nH]c(Cc3ccc(C(=O)O)cc3)nc2C(N)=O)cc1 has pIC50 of 5.00 to 6.00

====

- tgt: recombinant autotaxin (Homo sapiens, UniProt Q13822)
- experiment.notes: Autotaxin test (enzyme test), Amplex Red fluorescence
- condition.label: substrate LPC 75 μM, Amplex Red detection, read-out: IC50 (autotaxin inhibition, enzyme test)
- Method: Autotaxin Inhibition (Enzyme Test) Autotaxin Test (Enzyme Test) The autotaxin activity is measured indirectly using Amplex Red reagent. Amplex Red is measured here as fluorogenic indicator for the H2O2 formed. […] The fluorescence is measured in a reaction-dependent kinetic mode in order that fluorescent signals from possible other fluorescent substances which are not involved in the reaction can be corrected out. […]
pIC50: −log10 of the molar value.
measurement.name: pIC50

Some entries whose results are on file:
| compound | value.measured |
| --- | --- |
| NC(=O)c1nc(Cc2ccc(C(=O)NCCc3c[nH]cn3)cc2)[nH]c1NC(=O)Nc1ccc(C(F)(F)F)cc1 [Compound A103] | < 5.00 |
| CCCCc1ccc(NC(=O)Nc2[nH]c(Cc3ccc(C(=O)N4CCOCC4)cc3)nc2C(N)=O)cc1 [Compound A94] | 5.00 to 6.00 |
| CC(C)c1ccccc1NC(=O)Nc1[nH]c(Cc2ccc(C(=O)O)cc2)nc1C(N)=O [Compound A92] | < 5.00 |
| CCCCOc1ccc(NC(=O)Nc2[nH]c(Cc3ccc(CO)cc3)nc2C(N)=O)cc1 [Compound A100] | < 5.00 |
| Cc1oc(-c2ccccc2)cc1NC(=O)Nc1[nH]c(Cc2ccc(C(=O)O)cc2)nc1C(N)=O [Compound A101] | < 5.00 |

Value of measured pIC50 for the entry NC(=O)c1nc(-c2ccc(OCC(=O)O)cc2)[nH]c1NC(=O)Nc1cc(C(F)(F)F)ccc1F [Compound A55] : 5.00 to 6.00

Recorded pIC50 (compound NC(=O)c1nc(Cc2ccc(OCC(=O)O)cc2)[nH]c1NC(=O)Nc1ccc(Cl)cc1 [Compound A41] ): 5.00 to 6.00

Lab book: pIC50 of NC(=O)c1nc(Cc2ccc(C(=O)O)cc2)[nH]c1NC(=O)Nc1ccc(C(F)(F)F)cc1 [Compound A15] noted as 5.00 to 6.00

Briefly, pIC50 measured for NC(=O)c1nc(Cc2ccc(C(=O)O)o2)[nH]c1NC(=O)NCCc1ccccc1 [Compound A27] : 5.00 to 6.00

Record summary for CCCCOc1ccc(NC(=O)Nc2[nH]c(Cc3ccc(C(=O)O)cc3)nc2C(N)=O)cc1 [Compound A9] : reported pIC50 = 5.00 to 6.00

Entry NC(=O)c1nc(Cc2ccc([N+](=O)[O-])cc2)[nH]c1NC(=O)Nc1ccc(C(F)(F)F)cc1 [Compound A96] , pIC50 reported as < 5.00

pIC50 for CCc1ccc(NC(=O)Nc2[nH]c(Cc3ccc(OCC(=O)O)cc3)nc2C(N)=O)cc1 [Compound A42] is 5.00 to 6.00

Entry NC(=O)c1nc(Cc2ccc(C(=O)O)o2)[nH]c1NC(=O)Nc1ccc(C(F)(F)F)cc1 [Compound A10] — recorded pIC50 = 5.00 to 6.00

pIC50 in this record for CC(C)c1ccc(NC(=O)Nc2[nH]c(COc3ccc(CC(=O)O)cc3)nc2C(N)=O)cc1 [Compound A57] : 5.00 to 6.00

// recorded pIC50 for Cc1ccc(NC(=O)Nc2[nH]c(-c3ccc(OCC(=O)O)cc3)nc2C(N)=O)cc1 [Compound A53] : < 5.00

Record NC(=O)c1nc(Cc2ccc(C(=O)O)o2)[nH]c1NC(=O)Nc1ccc(Cl)cc1 [Compound A30] , field pIC50: 5.00 to 6.00

====

- tgt: recombinant autotaxin (Homo sapiens, UniProt Q13822)
- experiment.notes: Autotaxin test (enzyme test), Amplex Red fluorescence
- condition.label: substrate LPC 75 μM, Amplex Red detection, read-out: IC50 (autotaxin inhibition, enzyme test)
pIC50: −log10 of the molar value.
measurement.name: pIC50

Please review the following examples before continuing.
| smiles.structure | tgt | measurement.name | value.measured |
| --- | --- | --- | --- |
| COc1cc(NC(=O)Nc2[nH]c(COc3ccc(CC(=O)O)cc3)nc2C(N)=O)cc(OC)c1 | recombinant autotaxin (Homo sapiens, UniProt Q13822) | pIC50 | < 5.00 |
| CCCCc1ccc(NC(=O)Nc2[nH]c(Cc3ccc(C(=O)N(C)CCCC)o3)nc2C(N)=O)cc1 | recombinant autotaxin (Homo sapiens, UniProt Q13822) | pIC50 | < 5.00 |
| NC(=O)c1nc(COc2ccc(CC(=O)O)cc2)[nH]c1NC(=O)Nc1ccc(Cl)cc1 | recombinant autotaxin (Homo sapiens, UniProt Q13822) | pIC50 | < 5.00 |

Query NC(=O)c1nc(COc2ccc(CC(=O)O)cc2)[nH]c1NC(=O)Nc1ccc(C(F)(F)F)cc1 yields pIC50 of 5.00 to 6.00

# pIC50 of CCc1ccc(NC(=O)Nc2[nH]c(COc3ccc(CC(=O)O)cc3)nc2C(N)=O)cc1 = 5.00 to 6.00

Reported pIC50 for Cc1cccc(C)c1NC(=O)Nc1[nH]c(Cc2ccc(C(=O)O)o2)nc1C(N)=O was < 5.00

Value of pIC50 reported for the molecule Cc1c(Cl)cccc1NC(=O)Nc1[nH]c(Cc2ccc(C(=O)O)o2)nc1C(N)=O is < 5.00

pIC50 reported for this molecule CCCCc1ccc(NC(=O)Nc2[nH]c(Cc3ccc(C(=O)N4CCCCC4)o3)nc2C(N)=O)cc1 : < 5.00

====

- tgt: recombinant autotaxin (Homo sapiens, UniProt Q13822)
- experiment.notes: Autotaxin test (enzyme test), Amplex Red fluorescence
- condition.label: substrate LPC 75 μM, Amplex Red detection, read-out: IC50 (autotaxin inhibition, enzyme test)
Here the recorded IC50 is given for each entry.

Use these answered entries as a reference point.
| smiles.structure | IC50 |
| --- | --- |
| CCCCc1ccc(NC(=O)Nc2[nH]c(Cc3ccc(C(=O)N4C[C@@H](C)O[C@@H](C)C4)o3)nc2C(N)=O)cc1 | > 10 µM |
| CC(C)c1ccc(NC(=O)Nc2[nH]c(Cc3ccc(C(=O)O)o3)nc2C(N)=O)cc1 | 1 to 10 µM |
| Cc1ccc(NC(=O)Nc2[nH]c(Cc3ccc(OCC(=O)O)cc3)nc2C(N)=O)cc1 | 1 to 10 µM |
| CCc1ccc(NC(=O)Nc2[nH]c(-c3ccc(OCC(=O)O)cc3)nc2C(N)=O)cc1 | 1 to 10 µM |
| Cc1ccc(NC(=O)Nc2[nH]c(Cc3ccc(C(=O)O)s3)nc2C(N)=O)cc1 | > 10 µM |

The molecule identified as NC(=O)c1nc(-c2ccc(CC(=O)O)cc2)[nH]c1NC(=O)Nc1cccc(Cl)c1 registered its IC50 at > 10 µM

Record summary for CCc1ccc(NC(=O)Nc2[nH]c(Cc3ccc(C(=O)O)s3)nc2C(N)=O)cc1 : reported IC50 = 1 to 10 µM
